Tested on: early-stage gametocytes (NF54-PfS16-GFP-Luc)
Assay Protocol: Luciferase reporter assay, early-stage gametocytes
Type: cell-based, Plasmodium falciparum
Particulars: 1 µM, single biological repeat
Listed compounds paired with reported EG (% inhibition) 1 µM
Assay Readout: EG (% inhibition) 1 µM

>>> df
                                    compound        test_result
 0  Cc1ccc(-c2ccc(C)cn2)nc1.OCCN(CCO)C(=S)N=C([O][Pt+])c1ccccc1.[Cl-] [C14]   0.0 % inhibition
 1  Nc1cc[n+]2c(c1)-c1cc(N)cc[n+]1[Pt-2]21[O+]=C(c2ccccc2)N=C(N(CCO)CCO)[S]1.[Cl-] [C6]  13.7 % inhibition
 2  OCCN(CCO)C1=NC(c2ccccc2)=[O+][Pt-2]2([S]1)[n+]1ccc(C(F)(F)F)cc1-c1cc(C(F)(F)F)cc[n+]12.[Cl-] [C8]  26.2 % inhibition
 3  Cc1cccc(-c2cccc(C)n2)n1.OCCN(CCO)C(=S)N=C([O][Pt+])c1ccccc1.[Cl-] [C15]   2.8 % inhibition
 4  Cc1cc[n+]2c(c1)-c1cc(C)cc[n+]1[Pt-2]21[O+]=C(c2ccccc2)N=C(N(CCO)CCO)[S]1.[Cl-] [C2]  19.9 % inhibition
 5  COc1cc[n+]2c(c1)-c1cc(OC)cc[n+]1[Pt-2]21[O+]=C(c2ccccc2)N=C(N(CCO)CCO)[S]1.[Cl-] [C4]   6.8 % inhibition
 6  OCCN(CCO)C1=NC(c2ccccc2)=[O+][Pt-2]2([S]1)[n+]1ccccc1-c1cccc[n+]12.[Cl-] [C3]  26.9 % inhibition
 7  COC(=O)c1cc[n+]2c(c1)-c1cc(C(=O)OC)cc[n+]1[Pt-2]21[O+]=C(c2ccccc2)N=C(N(CCO)CCO)[S]1.[Cl-] [C10]   3.7 % inhibition
 8  OCCN(CCO)C1=NC(c2ccccc2)=[O+][Pt-2]2([S]1)[n+]1ccc(Cl)cc1-c1cc(Cl)cc[n+]12.[Cl-] [C7]   2.2 % inhibition
 9  CNC(=O)c1cc[n+]2c(c1)-c1cc(C(=O)NC)cc[n+]1[Pt-2]21[O+]=C(c2ccccc2)N=C(N(CCO)CCO)[S]1.[Cl-] [C9]   0.0 % inhibition
10  OCCN(CCO)C1=NC(c2ccccc2)=[O+][Pt-2]2([S]1)[n+]1ccc(O)cc1-c1cc(O)cc[n+]12.[Cl-] [C5]   0.0 % inhibition

----------
Test system: late-stage gametocytes (NF54-PfS16-GFP-Luc)
Assay Protocol: Luciferase reporter assay, late-stage gametocytes
Type: cell-based, Plasmodium falciparum
Particulars: 5 µM, single biological repeat
Assay Readout: LG (% inhibition) 5 µM

In [3]: df
Out[3]:
                                    compound        test_result
 0  OCCN(CCO)C1=NC(c2ccccc2)=[O+][Pt-2]2([S]1)[n+]1ccccc1-c1cccc[n+]12.[Cl-] [C3]  39.8 % inhibition
 1  Cc1ccc(-c2ccc(C)cn2)nc1.OCCN(CCO)C(=S)N=C([O][Pt+])c1ccccc1.[Cl-] [C14]  56.6 % inhibition
 2  Nc1cc[n+]2c(c1)-c1cc(N)cc[n+]1[Pt-2]21[O+]=C(c2ccccc2)N=C(N(CCO)CCO)[S]1.[Cl-] [C6]  32.4 % inhibition
 3  COC(=O)c1cc[n+]2c(c1)-c1cc(C(=O)OC)cc[n+]1[Pt-2]21[O+]=C(c2ccccc2)N=C(N(CCO)CCO)[S]1.[Cl-] [C10]   6.1 % inhibition
 4  CNC(=O)c1cc[n+]2c(c1)-c1cc(C(=O)NC)cc[n+]1[Pt-2]21[O+]=C(c2ccccc2)N=C(N(CCO)CCO)[S]1.[Cl-] [C9]   2.4 % inhibition
 5  OCCN(CCO)C1=NC(c2ccccc2)=[O+][Pt-2]2([S]1)[n+]1ccc(Cl)cc1-c1cc(Cl)cc[n+]12.[Cl-] [C7]   0.4 % inhibition
 6  Cc1cc[n+]2c(c1)-c1cc(C)cc[n+]1[Pt-2]21[O+]=C(c2ccccc2)N=C(N(CCO)CCO)[S]1.[Cl-] [C2]  25.5 % inhibition
 7  OCCN(CCO)C1=NC(c2ccccc2)=[O+][Pt-2]2([S]1)[n+]1ccc(O)cc1-c1cc(O)cc[n+]12.[Cl-] [C5]   0.5 % inhibition
 8  Cc1cccc(-c2cccc(C)n2)n1.OCCN(CCO)C(=S)N=C([O][Pt+])c1ccccc1.[Cl-] [C15]  84.0 % inhibition
 9  OCCN(CCO)C1=NC(c2ccccc2)=[O+][Pt-2]2([S]1)[n+]1ccc(C(F)(F)F)cc1-c1cc(C(F)(F)F)cc[n+]12.[Cl-] [C8]  85.8 % inhibition
10  COc1cc[n+]2c(c1)-c1cc(OC)cc[n+]1[Pt-2]21[O+]=C(c2ccccc2)N=C(N(CCO)CCO)[S]1.[Cl-] [C4]  54.4 % inhibition
